B1: CPEB3 Ribozyme (parent)
chain: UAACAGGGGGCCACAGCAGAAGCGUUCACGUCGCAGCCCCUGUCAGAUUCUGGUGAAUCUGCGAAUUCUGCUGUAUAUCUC

variants of: B1; test: self-cleavage, relative activity (ratio to wild type); higher = more cleavage; in vitro, sequencing
# maps each entry to its self-cleavage
Reply briefly: the number, and no unit.

>  <MUTATION_SPEC>
U31C

>  <self-cleavage>
0.87

$$$$
>  <MUTATION_SPEC>
C29U G42U

>  <self-cleavage>
0.23

$$$$
>  <MUTATION_SPEC>
U1C U54G

>  <self-cleavage>
0.67

$$$$
>  <MUTATION_SPEC>
U1C C34A

>  <self-cleavage>
0.12

$$$$
>  <MUTATION_SPEC>
C59A U72C

>  <self-cleavage>
0.34

$$$$
>  <MUTATION_SPEC>
C17U U49C

>  <self-cleavage>
0.15

$$$$
>  <MUTATION_SPEC>
U25A C81U

>  <self-cleavage>
0.57

$$$$
>  <MUTATION_SPEC>
G7U U74A

>  <self-cleavage>
0.22

$$$$

Please look up its self-cleavage: A28G U48C
0.29

Please look up its self-cleavage: U51C C71A
0.53

Please look up its self-cleavage: U58C G70A
0.37
